Values from PubChem BioAssay (NCI)

system: MDA-MB-468 breast; test: NCI tumour cell line growth inhibition, 48 h; in the data active means GI50 below about 0.43 µM; inactive means the rest
Log the outcome using a class from active, inactive

Given CCOC(=O)c1sc(NCC(=O)Nc2cccc([N+](=O)[O-])c2)c(C(=O)OCC)c1C , state the outcome it received in this test.
inactive

Given CC1=C[C@H]2c3c(c(O)c(O)c4oc(-c5ccccc5)cc(=O)c34)[C@H](c3cc(O)c(O)c4oc(-c5ccccc5)cc(=O)c34)[C@H]2C(C)(C)C1 , state the outcome it received in this test.
inactive

Given COc1cc(C(=O)c2cc(C)c3[nH]c4ccc(C)cc4c3c2C)cc(OC)c1OC , state the outcome it received in this test.
active

Given COc1ccc(/C=N/NC(=O)c2[nH]c3ccc(Br)cc3c2-c2ccccc2)o1 , state the outcome it received in this test.
active

Given COc1cccc2c(=O)c3c(sc12)c(N1CCNCC1)nc1ccccc13 , state the outcome it received in this test.
inactive

Given Nc1nc(F)nc2c1ncn2C1OC(CO)C(O)C1O (stereo unspecified) , state the outcome it received in this test.
inactive

###

tested on: MDA-MB-468 breast; test: NCI tumour cell line growth inhibition, 48 h; in the data active means GI50 below about 0.43 µM; inactive means the rest
Log the outcome using a class from active, inactive

Given CN(C)CCN1C(=O)c2ccc3c4c(ccc(c24)C1=O)C(=O)N(CCN=C=S)C3=O , state the outcome it received in this test.
active

Given COc1cc2[nH]c(C(=O)c3cc(OC)c(OC)c(OC)c3)c(N)c2cc1C#CC1CC1 , state the outcome it received in this test.
inactive

Given Cc1[nH]c2ccccc2c(=O)c1CC=C(Cl)Cl , state the outcome it received in this test.
inactive

Given COc1cc(/C=C/c2cc(/C=C/c3ccc(O)c(OC)c3)n(C(=O)Nc3ccc(C)cc3C)n2)ccc1O , state the outcome it received in this test.
active

Given CCCCCCCCCCCCCCCCCCOc1ccccc1CC(=O)OCC[N+]1(C)CCCC1 , state the outcome it received in this test.
inactive

###

For each entry below, report its TGI value.
tested on: MDA-MB-468 breast; test: NCI tumour cell line growth inhibition, 48 h

# lookup: C#CCOc1cccc(-c2nc(N)nc(Nc3ccccc3SSc3ccccc3Nc3nc(N)nc(-c4cccc(OCC#C)c4)n3)n2)c1 on MDA-MB-468 breast, TGI = > 33.3 µM

# lookup: Cc1ccc2[nH]c(O)c(N=Nc3ccc(S(N)(=O)=O)cc3)c2c1 on MDA-MB-468 breast, TGI = > 25 µM

# lookup: Cc1ccc(-c2nc3ccc(Cl)cc3c(=O)n2N2C(=O)CSC2c2ccccc2Cl)cc1 (centres undefined) on MDA-MB-468 breast, TGI = > 100 µM

# lookup: Nc1nc(F)nc2c1ncn2C1OC(CO)C(O)C1O (centres undefined) on MDA-MB-468 breast, TGI = > 100 µM
